- Tested System: MTHFD1 recombinant human enzyme (Homo sapiens, UniProt P11586)
- Sequence (P11586 2-291 limits assumed): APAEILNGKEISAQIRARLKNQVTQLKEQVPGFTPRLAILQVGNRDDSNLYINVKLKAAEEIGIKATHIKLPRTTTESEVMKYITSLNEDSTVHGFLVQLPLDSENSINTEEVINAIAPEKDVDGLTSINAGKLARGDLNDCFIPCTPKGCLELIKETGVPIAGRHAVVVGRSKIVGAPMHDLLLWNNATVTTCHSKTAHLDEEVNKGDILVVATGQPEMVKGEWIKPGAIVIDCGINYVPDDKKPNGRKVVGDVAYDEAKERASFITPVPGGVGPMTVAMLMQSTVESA
- Assay Protocol: MTHFD1 inhibition assay (NAD(P)H-Glo luminescence)
- Recorded Conditions: MTHFD1 IC50, recombinant human enzyme 200 nM, NADP, band
Measured Metric: IC50

Per the record, "COC[C@H]1CN(c2cc(C)c3c4c(c(=O)oc3c2C)CN(C(=O)c2cc(N(C)C)c(C(=O)NS(=O)(=O)C3(C)CC3)cc2C(F)(F)F)CC4)CCN1C" has IC50 of > 5000 nM

Per the record, "COC[C@H]1CN(c2cc(C)c3c4c(c(=O)oc3c2C)CN(C(=O)c2ccc(C(=O)NS(=O)(=O)N3CCCC3)c(OC(F)(F)F)c2F)CC4)CCN1C" has IC50 of 100 to 1000 nM

Per the record, COC[C@H]1CN(c2ccc3c4c(c(=O)oc3c2C)CN(C(=O)c2cc(N(C)C)c(C(=O)NS(=O)(=O)N3CC5CC5C3)cc2F)CC4)CCN1C (stereo partly drawn) has IC50 of 100 to 1000 nM
